Compiled literature pIC50, tested on Amine oxidase [flavin-containing] A (Mus musculus, UniProt Q64133).
Target: Amine oxidase [flavin-containing] A (Mus musculus, UniProt Q64133)
Sequence (Q64133 whole entry): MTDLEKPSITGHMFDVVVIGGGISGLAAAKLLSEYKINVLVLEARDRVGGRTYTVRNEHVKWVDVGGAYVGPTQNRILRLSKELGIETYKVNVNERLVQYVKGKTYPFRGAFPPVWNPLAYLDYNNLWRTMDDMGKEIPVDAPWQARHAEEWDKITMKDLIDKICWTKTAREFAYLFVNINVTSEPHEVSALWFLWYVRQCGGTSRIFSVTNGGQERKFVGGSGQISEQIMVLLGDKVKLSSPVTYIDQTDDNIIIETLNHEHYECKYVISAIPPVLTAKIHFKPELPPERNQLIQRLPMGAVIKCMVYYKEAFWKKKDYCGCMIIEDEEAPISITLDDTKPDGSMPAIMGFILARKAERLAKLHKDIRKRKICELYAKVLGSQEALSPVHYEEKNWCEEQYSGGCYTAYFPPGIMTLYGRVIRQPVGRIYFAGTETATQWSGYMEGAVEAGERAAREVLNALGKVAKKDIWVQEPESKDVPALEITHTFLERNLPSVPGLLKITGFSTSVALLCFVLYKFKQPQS
pIC50: −log10 of the molar value.
Property label: pIC50

>>> data_value("CC(C)C(=O)c1ccc(O)c(O)c1")
"< 4.30"
>>> data_value("C=CC(C)(C)c1c(O)cc(O)c2c(=O)c3c(CC=C(C)C)c(O)c(O)cc3oc12")
4.05
>>> data_value("Fc1ncccc1-c1cnc2c(c1)[nH]c1ccncc12")
"< 6.00"
>>> data_value("CC(C)=CCc1c(O)cc2c(c1O)C(=O)C[C@@H](c1cc3c(cc1O)OC(C)(C)C=C3)O2")
4.05
>>> data_value("C=CC(C)(C)c1c(O)cc(O)c2c(=O)c3c(CCC(C)(C)O)c(O)c(O)cc3oc12")
"< 3.82"
>>> data_value("Fc1cc(-c2cnc3c(c2)[nH]c2ccncc23)ccn1")
"< 6.00"
>>> data_value("C=CC(C)(C)c1c(O)cc2oc3c(CC=C(C)C)c(O)c(O)cc3c(=O)c2c1O")
"< 3.82"
>>> data_value("Fc1cc(-c2ccc3c(n2)[nH]c2ccncc23)ccn1")
"< 6.00"
>>> data_value("Fc1ncccc1-c1ccc2c(c1)[nH]c1ccncc12")
8.11
>>> data_value("COc1c(OCC=C(C)C)ccc2ccc(=O)oc12")
5.24
>>> data_value("COc1ccc(-c2coc3cc(O)ccc3c2=O)cc1")
4.67
>>> data_value("Fc1cc(-c2cc3[nH]c4ccncc4c3cn2)ccn1")
"< 6.00"
>>> data_value("CC(C)=CCc1c(O)c(O)cc2oc3c4c(cc(O)c3c(=O)c12)OC(C)C4(C)C (stereo not given)")
"< 3.82"
>>> data_value("C=CC(C)(C)c1c(O)cc(O)c2c(=O)c3c(CC=C(C)C)c(OC)c(O)cc3oc12")
"< 3.82"
>>> data_value("COc1c(CC=C(C)C)c(O)c2c(=O)c3cc(O)c(O)cc3oc2c1CC=C(C)C")
"< 3.82"
